- System: Wild type
- assay remarks: S. aureus survival, RN4220 and DeltatarO strains – OD600, teichoic acid synthesis inhibitors, primary screen (AID 463173)
- experimental parameters: S. aureus RN4220 wild type/DeltatarO growth, OD600, 18 h, active compounds read low, screened at 18.75 µg/mL (by protocol)
About 1,700 (3.3%) of roughly 52,000 compounds were called active. Many of the other results were omitted from the sample, so actives are more common in it than they were.
survival less than 80% is rule met; survival greater than or equal to 80% is rule not met.

Use these answered entries as a reference point.
compound: C=CCc1c(C)nc(SC)[nH]c1=O
group: rule not met

compound: COc1ccc(C(=O)N(CC(=O)NC2CCCC2)C2CCCCC2)cc1OC
group: rule not met

compound: Cc1ccc2oc(-c3ccc(NC(=O)c4cccc(F)c4)c(C)c3)nc2c1
group: rule not met

compound: CCc1ccc(N2C(=O)CSC23C(=O)N(Cc2ccc(C)cc2)c2ccccc23)cc1 (stereo not drawn)
group: rule met

compound: CCc1ccc(-c2cn3c(n2)SCC3)cc1
group: rule not met

compound: Cc1ccc(CNC(=O)CN2Cc3ccccc3C2=O)cc1
group: rule met

compound: CCCCC(=O)Nc1ccc(NC(=O)C2CC2)nc1
group: rule not met

compound: N#Cc1cc[n+](CC(=O)c2cccs2)cc1
group: rule not met

Inquiry: Lab note: confirm whether the reported survival for this compound is below 80%, equality not counting. compound: CCc1ccc(C(=O)c2cn(CC(=O)Nc3cccc(OC)c3)c3ccc(OC)cc3c2=O)cc1
Reply text: rule met

Inquiry: Lab note: confirm whether the reported survival for this compound is below 80%, equality not counting. compound: Cc1oc(-c2ccc(C(=O)NCCc3ccc(Cl)cc3)cc2)nc1CSc1ccccc1
Reply text: rule met

Inquiry: Lab note: confirm whether the reported survival for this compound is below 80%, equality not counting. compound: CCc1ccc(-c2nn(-c3ccc(OC)cc3)c3c2cnc2ccc(OC)cc23)cc1
Reply text: rule met

====

- Test system: Wild type
- assay remarks: S. aureus survival, RN4220 and DeltatarO strains – OD600, teichoic acid synthesis inhibitors, primary screen (AID 463173)
- experimental parameters: S. aureus RN4220 wild type/DeltatarO growth, OD600, 18 h, active compounds read low, screened at 18.75 µg/mL (by protocol)
In all, about 52,000 compounds went through this assay and about 1,700 (3.3%) were called active. The sample as a whole holds a higher share of actives than the screen did.
measurement label: survival (%)
Numbers only, in %.

Would you please look over these solved cases?
chemical smiles: CCCCN(CCCC)C(=O)c1cc2c(=O)n3ccccc3nc2s1
survival, %: 61
--
chemical smiles: O=C(CSc1c2c(nc3cc(Cl)ccc13)CCCC2)N1CCN(c2ccccc2F)CC1
survival, %: 69
--
chemical smiles: CCOC(=O)C1CCN(C(=O)CSc2c3c(nc4ccc(Cl)cc24)CCCC3)CC1
survival, %: 56
--
chemical smiles: Cc1cccc(CCn2c(=O)c3ccccc3n(Cc3cccc(F)c3)c2=O)c1
survival, %: 82
--
chemical smiles: O=C(CSc1c2c(nc3cc(Cl)ccc13)CCCC2)N1CCN(c2ccccc2)CC1
survival, %: 44
--
chemical smiles: CCc1ccc(NC(=O)c2oc3c(c2C)-c2[nH]ncc2CC3)cc1
survival, %: 59

Hi team, please reply with survival for each item in this list.
1. CCOC(=O)c1c(C)n(-c2ccccc2)c2ccc(OC(=O)c3cccc(Cl)c3)cc12
2. CSc1ccc(CCNC(=O)c2csc3c2CCCCC3)cc1
3. O=C(CSc1c2c(nc3ccc(Cl)cc13)CCCC2)N1CCCCC1
4. Cc1ccc(CNC(=O)CSc2c3c(nc4cc(Cl)ccc24)CCCC3)cc1

Reply text:
1: 78; 2: 69; 3: 29; 4: 83

====

- System: Wild type
- assay remarks: S. aureus survival, RN4220 and DeltatarO strains – OD600, teichoic acid synthesis inhibitors, primary screen (AID 463173)
- experimental parameters: S. aureus RN4220 wild type/DeltatarO growth, OD600, 18 h, screened at 18.75 µg/mL (by protocol)
About 1,700 (3.3%) of roughly 52,000 compounds were called active. No stated cut-off is given here; in the data, active means survival mostly below about 52% (no sharp cut-off); inactive means mostly above about 56%. What follows is part of a selection rich in actives, with near analogues and random picks from the rest.
Return exactly one item of t for active, f for inactive

Use these answered entries as a reference point.
compound: O=C(Nc1ccccc1)c1cn(-c2ccccc2)nc1-c1ccccc1
measurement target: Wild type
group: f

compound: COc1ccc(-c2c[n+](=O)c3c(n2[O-])CCC3)cc1
measurement target: Wild type
group: f

Inquiry: What did the test return for Cc1cccc(NC(=O)c2c(NC(=O)C(F)(F)F)sc3c2CCCCC3)c1 ?
Reply text: t

Inquiry: What did the test return for COCCc1nn2c(=O)cc(COC(=O)c3ccccc3C)nc2s1 ?
Reply text: t

Inquiry: What did the test return for O=C(Nc1sc2c(c1C(=O)Nc1cccc(Cl)c1)CCCC2)c1cccs1 ?
Reply text: f

====

- Test system: Wild type
- assay remarks: S. aureus survival, RN4220 and DeltatarO strains – OD600, teichoic acid synthesis inhibitors, primary screen (AID 463173)
- experimental parameters: S. aureus RN4220 wild type/DeltatarO growth, OD600, 18 h, active compounds read low, screened at 18.75 µg/mL (by protocol)
The campaign covered roughly 52,000 compounds. About 1,700 (3.3%) were called active. The sample holds actives, similar compounds and a random draw of the others, so the mix is not that of the screen.
measurement label: survival (%)
One number for each entry, in %.

Would you please look over these solved cases?
molecule: O=C(NCc1ccc(F)cc1)c1cc2c(s1)-c1ccccc1SC2
measurement target: Wild type
measurement label: survival
observed: 50
//
molecule: COc1ccc(OC)c(-c2cc(C(=O)NCc3ccc(Cl)cc3)no2)c1
measurement target: Wild type
measurement label: survival
observed: 85
//
molecule: O=C(Nn1c(Cc2ccccc2)nc2ccccc2c1=O)c1ccco1
measurement target: Wild type
measurement label: survival
observed: 107
//
molecule: COCCCNC(=O)C1CCN(c2nn3cc(-c4ccc(F)cc4)nc3s2)CC1
measurement target: Wild type
measurement label: survival
observed: 88
//
molecule: CCOc1ccc(NC(=O)c2cc3c(s2)-c2ccccc2OC3)cc1
measurement target: Wild type
measurement label: survival
observed: 100

Hi team, please reply with survival for each item in this list.
1. CCCN(C(=O)c1cc2c(s1)-c1ccccc1OC2)c1ccccc1F
2. Cc1ccc(NC(=O)Nc2nnc(N3CCCCC3)s2)c(C)c1
3. CCN(CC)CCOC(=O)c1ccc(NC(=O)c2cc3c(s2)-c2ccccc2OC3)cc1
4. Cc1cn(C)c(CC(=O)Nc2ccc(F)cc2Cl)c1C(=O)O
5. CCCN1CCN(CCCNC(=O)c2cc3c(s2)-c2ccccc2OC3)CC1
6. COc1ccc(Nc2oc(/C=C/c3ccccc3OC)nc2C#N)cc1

Reply text:
[-2, 97, 5, 76, 83, 86]

Hi team, please reply with survival for each item in this list.
1. COc1ccc(OC)c(-c2cc(C(=O)NC(C)c3ccccc3)no2)c1 (stereo not drawn)
2. COc1ccc(N2CCN(c3oc(/C=C/c4ccccc4OC)nc3C#N)CC2)cc1

Reply text:
[-12, 86]

====

- System: Wild type
- assay remarks: S. aureus survival, RN4220 and DeltatarO strains – OD600, teichoic acid synthesis inhibitors, primary screen (AID 463173)
- experimental parameters: S. aureus RN4220 wild type/DeltatarO growth, OD600, 18 h, active compounds read low, screened at 18.75 µg/mL (by protocol)
The whole screen tested about 52,000 compounds, of which about 1,700 (3.3%) were called active. The sample holds actives, similar compounds and a random draw of the others, so the mix is not that of the screen.
So I've got a bunch of molecules here, and I need their survival values.
Answers are plain numbers, in %.

Would you please look over these solved cases?
molecule: CCOc1ccccc1NC(=O)N1c2ccccc2Sc2ccccc21
observed: 61
--
molecule: COc1ccc(C2CC(=O)c3cc(-c4nc(-c5ccc(Cl)cc5)c(C)s4)c(=O)[nH]c3C2)cc1 (configuration not stated)
observed: 71
--
molecule: CCc1ccc(NC(=O)N2c3ccccc3Sc3ccccc32)cc1
observed: 1

Hi team, please reply with survival for each item in this list.
1. CCCSc1nnc2n(-c3cccc(C)c3)c(=O)c3c4c(sc3n12)CCCC4
2. COc1cc(NC(=O)N2c3ccccc3Sc3ccccc32)cc(OC)c1
3. COc1ccc(OC)c(NC(=O)N2c3ccccc3Sc3ccccc32)c1
4. Cc1ccccc1OCC(O)Cn1c(=N)n(CCN2CCCCC2)c2ccccc21 (configuration not stated)

Reply text:
1. 2
2. 65
3. 19
4. 76

====

So I've got a bunch of compounds here, and I need their survival values.
- System: Wild type
- assay remarks: S. aureus survival, RN4220 and DeltatarO strains – OD600, teichoic acid synthesis inhibitors, primary screen (AID 463173)
- experimental parameters: S. aureus RN4220 wild type/DeltatarO growth, OD600, 18 h, active compounds read low, screened at 18.75 µg/mL (by protocol)
Screen size: about 52,000 compounds; about 1,700 (3.3%) were called active. The list comes from a sample in which actives are over-represented; it also holds close analogues and randomly drawn compounds.
Give bare numbers, in %.

Hi team, please reply with survival for each item in this list.
1. COc1ccc2c(c1)c1c(c(=O)n(-c3ccc(C)cc3)c(=O)n1CC(=O)Nc1cc(C)ccc1C)n2C
2. O=C(NCc1ccccc1)c1ccc2nc(CCc3ccccc3)oc2c1
3. COC(=O)COc1ccc(Oc2nc(NC(C)(C)C)nc(N(C)C)n2)nn1
4. COc1ccc(-c2cc(C(F)(F)F)nc(SCC(=O)NCCc3ccccc3)n2)cc1
5. COc1cc(C2CC(=O)Nc3c2c(=O)[nH]c2ncnn32)ccc1O (stereo unspecified)
6. CN(C)CCNC(=O)c1ccc(-n2c(-c3ccccc3)cc3c2CCCCC3)cc1
7. COc1ccc(CNC(=O)c2ccc3nc(CCc4ccccc4)oc3c2)c(OC)c1

Reply text:
115
-3
85
140
77
17
131

Hi team, please reply with survival for each item in this list.
1. CCN(CC)CCNC(=O)c1ccc(-n2c(-c3ccccc3)cc3c2CCCC3)cc1
2. CN(C)c1ccc(CNC(=O)c2ccc3nc(CCc4ccccc4)oc3c2)cc1
3. O=C(CSc1nc(-c2ccc(F)cc2)cc(C(F)(F)F)n1)NCc1ccccc1
4. COc1ccc(Cc2nc3ccc(C(=O)NCCc4ccc(OC)c(OC)c4)cc3o2)cc1

Reply text:
1: 2; 2: 78; 3: 84; 4: 68
